# Tested on: CRL-7250
# Experimental Details: Cytotoxic Profiling of Annotated Libraries Using Quantitative High-Throughput Screening (AID 1296008); further: on the % scale 0 is the no-effect control and ±100 the full control effect; nearly all actives have a fitted effect of over 60% in size
# Setup Conditions: Five cell lines viability, CellTiter-Glo ATP luminescence, 48-72 h; stronger effect = lower value
# Method: Cell-based phenotypic screening is a commonly used approach to discover biological pathways, novel drug targets, chemical probes and high-quality hit-to-lead molecules. […] A pintool (Kalypsys) was used to transfer 23 nL of compound solution to the 1536-well assay plates. […] Plates were left at room temperature for 10 min before imaging the ATP-coupled luminescence using a ViewLux microplate imager (PerkinElmer, Waltham, MA).
Results filed as inconclusive are left out.
Catalogue of max response values
Express it in %; write the number only.

Record excerpt, results attached:
| Compound | Measured Result |
| --- | --- |
| CC(C)[C@H](NC(=O)c1nn(Cc2ccc(F)cc2)c2ccccc12)C(N)=O | -7.52 |
| C#C[C@]1(O)CC[C@H]2[C@@H]3CC[C@H]4Cc5nc6nc7ccccc7n6cc5C[C@]4(C)[C@H]3CC[C@@]21C | 1.18 |
| C[C@H]1CN(CC[C@H](O)C2CCCCC2)CC[C@@]1(C)c1cccc(O)c1 | 4.91 |

Which max response is reported with CRL-7250 for this entry: C[C@]12CC[C@H](O)C[C@@H]1CC[C@@H]1[C@@H]2CC[C@]2(C)C(=O)CC[C@@H]12 ?
-5.26

Which max response is reported with CRL-7250 for this entry: C[C@H](Nc1ncnc2nc[nH]c12)c1nc2ccc(F)cc2c(=O)n1-c1ccccc1 ?
-36.2

Which max response is reported with CRL-7250 for this entry: COCC(C(=O)OC1CC2CCC(C1)N2C)c1ccccc1 (stereo not drawn) ?
-5.38

Which max response is reported with CRL-7250 for this entry: CC(=O)O[C@H]1CN2CCC1CC2 ?
-2.3

Which max response is reported with CRL-7250 for this entry: Cc1ccc2c(c1)[C@H]1CN(C)CC[C@H]1N2C(=O)CSc1nnnn1-c1ccc(Cl)cc1 ?
0.988

---

Catalogue of max response values
# Experimental Details: qHTS assay for small molecule agonists of retinoid X receptor alpha signaling (AID 588544)
# Setup Conditions: HEK293T RXRa-UAS-bla, beta-lactamase reporter, 18 h; 530 nm emission
Results filed as inconclusive are left out.
Express it in %; write the number only.

| Query Smiles | Unit Spec | max response |
| --- | --- | --- |
| Cc1ccc(C)c2ccccc12 | % | -18.4 |

What max response value was documented for this compound, Cc1cc(O)c2c(c1)C(=O)c1cc(O)cc(O)c1C2=O ?
21.4

What max response value was documented for this compound, CCCCOP(=O)(O)OCCCC ?
-20.1

---

# Experimental Details: Primary qHTS to identify inhibitors of SARS-CoV-2 cell entry (AID 1645846); further: nearly all actives have a fitted effect of over 45% in size
# Setup Conditions: SARS-CoV-2 pseudovirus cell entry assay, luminescence; at 57.1 µM (top of the series) unless noted
Results filed as inconclusive are left out.
Assay Metric: activity change, negative = inhibition (%)
Express it in %; write the number only.

| Compound | Unit Spec | activity change, negative = inhibition |
| --- | --- | --- |
| O=C1CCC[C@@H]2[C@H]3CCC[N+]4([O-])CCC[C@@H](CN12)[C@@H]34 (stereo partly specified) | % | -3.17 |
| CN1CC(=O)NC1=NC(=O)Nc1cccc(Cl)c1 | % | -1.73 |
| c1ccc(-c2oc3ncnc(NC[C@@H]4CCCO4)c3c2-c2ccccc2)cc1 | % | -93.9 |
| CC(C)n1nc(-c2ccc3oc(N)nc3c2)c2c(N)ncnc21 | % | -61 |
| N#CNC(=NCCCCCCOc1ccc(Cl)cc1)Nc1ccncc1 | % | -97 |

What activity change, negative = inhibition value was documented for this compound, C[C@H](CCC(=O)O)[C@H]1CC[C@H]2[C@H]3[C@@H](CC[C@]12C)[C@@]1(C)CC[C@@H](O)C[C@H]1C[C@@H]3O ?
0.336

What activity change, negative = inhibition value was documented for this compound, CC(NCCc1ccc(O)cc1)C(O)c1ccc(O)cc1 (stereo unspecified) ?
-5.33

What activity change, negative = inhibition value was documented for this compound, NC[C@H]1O[C@H](O[C@@H]2[C@@H](O)[C@@H](O[C@H]3O[C@H](CO)[C@@H](O)[C@H](N)[C@@H]3O)[C@H](N)C[C@@H]2N)[C@H](O)[C@@H](O)[C@H]1O ?
-26.9
